Test details: GST conjugation activity with alachlor (HPLC)
Format: biochemical
Experimental conditions: 0.4 mM electrophilic substrate, 4 mM glutathione, 0.1 M MOPS pH 7.0, corrected for uncatalyzed reaction
The reader will find reported Activity of soybean GST enzyme, Alachlor values listed item by item below.

- Molecule: "GST-A: soybean type III GST encoded by cDNA insert in clone GSTa (protein) MSDEVVLLDFWPSPFGMRVRIALAEKGIKYEYKEEDLRNKSPLLLQMNPVHKKIPVLIHNGKPICESLIAVQYIEEVWNDRNPLLPSDPYQRAQTRFWADYVDKKIYDLGRKIWTSKGEEKEAAKKEFIEALKLLEEQLGDKTYFGGDNLGFVDIALVPFYTWFKAYETFGTLNIEECPKFIAWAKRCLQKESVAKSLPDQQKVYEFIMDLRKKLGIE"
  Units symbol: "nmol/min/mg"
  Activity of soybean GST enzyme, Alachlor: 71
- Molecule: "se3.03b09: soybean type III GST encoded by cDNA insert in clone se3.03b09 (protein) MSKSEDLKLLGGWFSPFALRVQIALNLKGLEYEVVEETLNPKSDLLLKSNPVHKKIPVFFHGDKVICESAIIVEYIDEAWTNVPSILPQNAYDRANARFWFAYIDEKWFTSLRSVLVAEDDEAKKPHFEQAEEGLERLEEVFNKYSEGKAYFGGDSIGFIDIGFGSFLSWMRVIEEMSGRKLLDEKKHPGLTQWAETFAADPAVKGILPETDKLVEFAKILQLKWTAAAAAAAK"
  Units symbol: "nmol/min/mg"
  Activity of soybean GST enzyme, Alachlor: 168
